Would you kindly list mortality at 500 g/ha for each of these compounds?
test system: Nilaparvata lugens; test: Nilaparvata lugens - spray test 1; type: in vivo; conditions: in Oryza sativa, 96 h, read-out: mortality in %, 500 g/ha, rice plants, after 4 days

Some compounds with known mortality at 500 g/ha results, for comparison:
C[C@H](NC(=O)c1cc(Cl)cc(C(F)(F)F)c1)c1ncnn1-c1ccccn1 [Compound I-117]; 100%
CC(c1ncnn1-c1ncccn1)N(CC1CC1)C(=O)c1cc(C(F)(F)F)cc(C(F)(F)F)c1 (centres unmarked) [Compound I-48]; 100%
CC(c1ncnn1-c1ncc(F)cn1)N(CC1CC1)C(=O)c1cc(Cl)cc(C(F)(F)F)c1 (centres unmarked) [Compound I-81]; 100%

Count: 5. Required value per item: mortality at 500 g/ha.
1. CC(c1ncnn1-c1ncccn1)N(CC1CC1)C(=O)c1cncc(C(F)(F)F)c1 (centres unmarked) [Compound I-28]
2. C[C@H](NC(=O)c1cncc(Br)c1)c1ncnn1-c1ncccn1 [Compound I-134]
3. CC(c1ncnn1-c1ncccn1)N(CC1CC1)C(=O)c1cc(Cl)cc(Cl)c1 (centres unmarked) [Compound I-95]
4. CC(NC(=O)c1cc(Cl)cc(OC(F)(F)F)c1)c1ncnn1-c1ncccn1 (centres unmarked) [Compound I-119]
5. CC(c1ncnn1-c1ncccn1)N(CC1CC1)C(=O)c1cc(Br)cc(C(F)(F)F)c1 (centres unmarked) [Compound I-62]

1: 100%; 2: 100%; 3: 90%; 4: 100%; 5: 90%
